From: patent US10611762B2

experiment: Solubility measurement in various solvents at 50 ± 1° C. (Procedure 2); format: physicochemical; conditions: isobutyl acetate, 50 °C, organic solvent or mixture, thermodynamic from solid, Isobutyl acetate; read-out: Solubility at 50 ± 1° C.
REPORTED METRIC: solubility (µg/mL)
# unit: µg/mL | format: bare number

stdin: Data request, read-out solubility, for C=CC(=O)NCc1cc2c(cn1)CN(c1c(F)c(OC)cc(OC)c1F)C(=O)C21CC1 [Compound 1 Form I]
stdout: 750

---

assay: Solubility measurement in various solvents at 50 ± 1° C. (Procedure 2); assay type: physicochemical; details: DCM/MeOH (1:1), 50 °C, organic solvent or mixture, thermodynamic from solid, DCM/MeOH (1:1); read-out: Solubility at 50 ± 1° C.
REPORTED METRIC: solubility

stdin: Data request, read-out solubility, for C=CC(=O)NCc1cc2c(cn1)CN(c1c(F)c(OC)cc(OC)c1F)C(=O)C21CC1 [Compound 1 Form I]
stdout: > 50 mg/mL

---

experiment: Solubility measurement in various solvents at 50 ± 1° C. (Procedure 2); assay type: physicochemical; conditions: acetone, 50 °C, organic solvent or mixture, thermodynamic from solid, Acetone; read-out: Solubility at 50 ± 1° C.
REPORTED METRIC: solubility (mg/mL)
# unit: mg/mL | format: bare number

stdin: Data request, read-out solubility, for C=CC(=O)NCc1cc2c(cn1)CN(c1c(F)c(OC)cc(OC)c1F)C(=O)C21CC1 [Compound 1 Form I]
stdout: 15.5

---

assay: Solubility measurement in various solvents at 23 ± 1° C. (Procedure 1); format: physicochemical; details: EtOAc, 23 °C, organic solvent or mixture, thermodynamic from solid, EtOAc; read-out: Solubility at 23 ± 1° C.
REPORTED METRIC: solubility (µg/mL)
# unit: µg/mL | format: bare number

stdin: Data request, read-out solubility, for C=CC(=O)NCc1cc2c(cn1)CN(c1c(F)c(OC)cc(OC)c1F)C(=O)C21CC1 [Compound 1 Form I]
stdout: 890

---

experiment: Solubility measurement in various solvents at 50 ± 1° C. (Procedure 2); type: physicochemical; conditions: n-BuOH, 50 °C, organic solvent or mixture, thermodynamic from solid, n-BuOH; read-out: Solubility at 50 ± 1° C.
REPORTED METRIC: solubility (µg/mL)
# unit: µg/mL | format: bare number

stdin: Data request, read-out solubility, for C=CC(=O)NCc1cc2c(cn1)CN(c1c(F)c(OC)cc(OC)c1F)C(=O)C21CC1 [Compound 1 Form I]
stdout: 6200

---

assay: Solubility measurement in various solvents at 23 ± 1° C. (Procedure 1); type: physicochemical; details: THF, 23 °C, organic solvent or mixture, thermodynamic from solid, THF; read-out: Solubility at 23 ± 1° C.
REPORTED METRIC: solubility (µg/mL)
# unit: µg/mL | format: bare number

stdin: Data request, read-out solubility, for C=CC(=O)NCc1cc2c(cn1)CN(c1c(F)c(OC)cc(OC)c1F)C(=O)C21CC1 [Compound 1 Form I]
stdout: 3770
